Ref: PubChem BioAssay

z-score reference
- protocolDetails: S6 kinase pathway phospho-S6 level changes – cell-based, A549, cytoblot, luminescence, serum-stimulated, primary screen (AID 1158);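 note: serum-stimulated A549 lung adenocarcinoma cells; signal is phosphorylated S6 detected by cytoblot immunostaining with HRP secondary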
- assaySetup: 5 h, higher = more signal

molecule	z-score
C=CCC(OC(C)=O)[C@@H]1[C@@H](N(Cc2ccc(-c3cccc(C(F)(F)F)c3)o2)C(=O)Cc2ccc(OC)cc2)c2cc(OCCCO)ccc2N1C(=O)Cc1ccc(OC)cc1 (some centres undefined)	1.37
CCCNC(=O)[C@@]1(C)c2ccccc2C(=O)N(Cc2ccc(OC(F)(F)F)cc2)[C@H]1c1ccc(CO)cc1	0.0696
CCCCC(=C=CC[C@H](O)c1ccccc1OCCO)C[C@H](O)c1cc(Cl)cc(Cl)c1O	0.276
C[N+](C)(C)CCCC[C@@H]1NC(=O)[C@@H]2C[C@H](C(=O)NCCCCCCNC(=O)CS)[C@H](c3cccc(OCCO)c3)N2C1=O	0.133

---

composite z-score reference
- targetEntity: Torsin-1A-interacting protein 1 (Homo sapiens) (UniProt Q5JTV8)
- Sequence (Q5JTV8 whole entry, looked up): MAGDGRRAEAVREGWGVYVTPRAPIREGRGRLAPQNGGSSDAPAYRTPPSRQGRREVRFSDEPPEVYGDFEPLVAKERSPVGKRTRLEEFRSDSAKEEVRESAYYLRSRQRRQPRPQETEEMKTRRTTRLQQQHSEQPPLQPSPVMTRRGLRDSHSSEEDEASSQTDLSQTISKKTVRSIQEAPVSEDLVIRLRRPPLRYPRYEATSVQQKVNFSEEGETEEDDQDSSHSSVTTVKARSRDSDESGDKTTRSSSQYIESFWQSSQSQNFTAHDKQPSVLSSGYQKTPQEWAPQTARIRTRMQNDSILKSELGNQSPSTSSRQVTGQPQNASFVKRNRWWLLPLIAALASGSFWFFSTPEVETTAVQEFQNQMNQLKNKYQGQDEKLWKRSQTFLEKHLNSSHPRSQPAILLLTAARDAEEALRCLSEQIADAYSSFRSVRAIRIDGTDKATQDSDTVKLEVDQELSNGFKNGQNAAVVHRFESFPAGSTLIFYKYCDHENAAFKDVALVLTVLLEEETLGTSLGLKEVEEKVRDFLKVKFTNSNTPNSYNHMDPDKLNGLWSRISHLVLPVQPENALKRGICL
- protocolDetails: compound microarray binding of lysate hLAP1 – cell lysate, small-molecule microarray, COS7 lysate, 635/667 nm fluorescence, primary screen (AID 1116)
- assaySetup: 635 nm fluorescence, higher = more signal

compound	composite z-score
Cc1ccc(S(=O)(=O)N2CC(C(=O)O)=CCC2c2ccccc2)cc1 (stereo not given)	0.505
Cc1ccc(F)cc1S(=O)(=O)N[C@@H]1CCN(Cc2ccc(C(F)(F)F)cc2)C1	-0.0249
CCCCCCCCCCC(O)C1C=CC2C(=O)N(c3ccccc3)C(=O)C2N1Nc1ccc([N+](=O)[O-])cc1 (stereo not given)	-0.105
O=C(NCC(F)(F)F)[C@@H]1c2ccccc2C(=O)N(Cc2ccccc2)[C@H]1c1ccc(CO)cc1	-0.236
O=C1OCCC=C[C@H]2OC34C=CCN(c5ccc6ccccc6c5)C(=O)[C@H]3N(CCCCCCO)C(=O)[C@@H]4C12 (stereo not given in full)	0.164
COc1ccc([Si](C)(C)[C@@H]2[C@@H](CCO)O[C@]3(C(=O)N(Cc4cccc(N(C=O)c5ccccc5)c4)c4ccccc43)[C@H]2C)cc1	0.494
COCCOC(=O)N1C(=O)[C@@]2(c3cc(C#CCC(C(=O)OC)C(=O)OC)ccc31)[C@H](c1ccccc1OCCO)N1[C@H](c3ccccc3)[C@H](c3ccccc3)OC(=O)[C@H]1[C@@H]2C(=O)Nc1nc2ccccc2s1	1.99
[N-]=[N+]=NCc1ccccc1[C@H]1OC(c2ccc(OCCCO)cc2)=N[C@@]1(Cc1ccccc1)C(=O)NCC(O)CO (stereo not given in full)	1.51
Oc1ccc2cc[n+](Cc3cccc(OC(F)(F)F)c3)cc2c1	-0.0554
Cc1ccc(N2C(=O)c3ccccc3[C@@H](C(=O)NC(C)C)[C@@H]2c2ccc(CO)cc2)nc1	2.09
C=CCN1C(=O)[C@@]2(O[C@@H](CCO)[C@H]([Si](C)(C)c3ccc(OC)cc3)[C@H]2C)c2cc(NC(C)=O)ccc21	1.14
C=CCN1C(=O)[C@@]2(O[C@@H](CCO)[C@H]([Si](C)(C)c3ccc(OC)cc3)[C@H]2C)c2cc(N3C(=O)COc4ccccc43)ccc21	1.16
C=CCC(OC(C)=O)[C@@H]1[C@@H](N(Cc2ccc(-c3cccc(C(F)(F)F)c3)o2)C(=O)Cc2ccc(OC)cc2)c2cc(OCCCO)ccc2N1C(=O)Cc1ccc(OC)cc1 (stereo not given in full)	-0.347
CCOC(=O)C1=CC[C@@H](c2ccccc2)N(S(=O)(=O)c2ccc(C)cc2)[C@H]1c1ccc(C#N)cc1	1.48
C=CCC(OC(C)=O)[C@@H]1[C@@H](N(Cc2cc3ccccc3o2)C(=O)c2ccc(C)cc2)c2cc(OCCCO)ccc2N1C(=O)c1ccc(-c2ccccc2)cc1 (stereo not given in full)	0.285
